biological target: CDK4/cyclin D3 (Homo sapiens, UniProt P11802); construct: made in house; host or cells: insect cells (baculovirus co-infection); assay: Inhibition of CDK4/Cyclin D retinoblastoma kinase activity; type: biochemical; settings: test compound at 1 μM (head line shifted: 'mM' printed beside 'Structure'); read-out: % Inhib CDK4/D @ 1 μM;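 note: relative to DMSO control wells without compound minus no-enzyme background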
Sequence (P11802 whole entry): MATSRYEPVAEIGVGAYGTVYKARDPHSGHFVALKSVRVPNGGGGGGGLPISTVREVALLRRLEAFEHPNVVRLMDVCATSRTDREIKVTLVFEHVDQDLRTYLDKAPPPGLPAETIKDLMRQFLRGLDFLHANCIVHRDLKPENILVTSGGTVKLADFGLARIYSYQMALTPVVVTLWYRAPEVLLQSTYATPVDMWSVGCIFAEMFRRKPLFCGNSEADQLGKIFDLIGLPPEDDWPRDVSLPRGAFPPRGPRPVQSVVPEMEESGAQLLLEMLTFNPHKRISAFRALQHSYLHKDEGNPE
Sequence (P30281 1-264 partner limits assumed): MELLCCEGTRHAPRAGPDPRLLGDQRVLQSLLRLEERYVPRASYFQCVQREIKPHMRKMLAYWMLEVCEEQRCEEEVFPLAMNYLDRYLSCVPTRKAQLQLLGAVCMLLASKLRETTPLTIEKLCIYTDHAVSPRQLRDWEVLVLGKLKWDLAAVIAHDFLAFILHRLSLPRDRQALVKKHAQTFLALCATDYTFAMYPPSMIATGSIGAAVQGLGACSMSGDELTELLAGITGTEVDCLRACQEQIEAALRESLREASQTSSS
Short version: inhibition at 1 µM at least 50% is T, less is F.

Record excerpt, results attached:
INSERT INTO measurements (compound, category) VALUES
  ('NC(=O)CS(=O)(=O)c1ccc(Nc2nc(N)c(C(=O)c3c(Cl)cccc3Cl)s2)cc1', 'F'),
  ('CC(CN(C)C)CS(=O)(=O)c1ccc(Nc2nc(N)c(C(=O)c3c(Cl)cccc3Cl)s2)cc1 (centres unmarked)', 'T'),
  ('COC(=O)C[S+]([O-])c1cccc(Nc2nc(N)c(C(=O)c3c(Cl)cccc3Cl)s2)c1 (centres unmarked)', 'F');

Exam item: decide whether the reported inhibition at 1 µM for COCCSc1cccc(Nc2nc(N)c(C(=O)c3c(Cl)cccc3Cl)s2)c1 is at least 50%.
T

Tell me whether inhibition at 1 µM is at least 50% here: COC(=O)CSc1cccc(Nc2nc(N)c(C(=O)c3c(Cl)cccc3Cl)s2)c1
T

Hi team, for CC(C)=CC[S+]([O-])c1cccc(Nc2nc(N)c(C(=O)c3c(Cl)cccc3Cl)s2)c1 (centres unmarked) , is the recorded inhibition at 1 µM at or above 50%?
F

API: above_or_equal(metric=inhibition at 1 µM, cutoff=50%) for item CC(=O)OCC[S+]([O-])c1ccc(Nc2nc(N)c(C(=O)c3c(Cl)cccc3Cl)s2)cc1 (centres unmarked)
T

In plain terms: is recorded inhibition at 1 µM at least 50% for CC1(C[S+]([O-])c2cccc(Nc3nc(N)c(C(=O)c4c(Cl)cccc4Cl)s3)c2)CO1 (centres unmarked) ?
T

Hi, just wondering whether Nc1nc(Nc2ccc([S+]([O-])CC3CC3)cc2)sc1C(=O)c1c(Cl)cccc1Cl (centres unmarked) shows inhibition at 1 µM of 50% or higher.
T

Identify whether the reported inhibition at 1 µM of the following compound is 50% or greater: CCC[S+]([O-])c1ccc(Nc2nc(N)c(C(=O)c3c(Cl)cccc3Cl)s2)cc1 (centres unmarked)
T

Confirm if inhibition at 1 µM reported for the compound CCOCCSc1ccc(Nc2nc(N)c(C(=O)c3c(Cl)cccc3Cl)s2)cc1 is 50% or above.
T

Can Nc1nc(Nc2ccc(SCc3ncon3)cc2)sc1C(=O)c1c(Cl)cccc1Cl be said to have inhibition at 1 µM at or above 50%?
T

In plain terms: is recorded inhibition at 1 µM at least 50% for CCC(CC)C[S+]([O-])c1ccc(Nc2nc(N)c(C(=O)c3c(Cl)cccc3Cl)s2)cc1 (centres unmarked) ?
F

Has COC(=O)CSc1ccc(Nc2nc(N)c(C(=O)c3c(Cl)cccc3Cl)s2)cc1 a recorded inhibition at 1 µM greater than or equal to 50%?
T

Form field: inhibition at 1 µM at least 50%? Entry: Nc1nc(Nc2cccc([S+]([O-])CC(O)CO)c2)sc1C(=O)c1c(Cl)cccc1Cl (centres unmarked)
T

// inclusive: inhibition at 1 µM at least 50%? input: Nc1nc(Nc2cccc([S+]([O-])CC3CC3)c2)sc1C(=O)c1c(Cl)cccc1Cl (centres unmarked)
F

Kindly determine if inhibition at 1 µM recorded for CCOC(=O)CCSc1cccc(Nc2nc(N)c(C(=O)c3c(Cl)cccc3Cl)s2)c1 is above or exactly 50%.
F

meta.source: patent US20040176431A1
